We begin with a simple list: items and their reported concentration up to which no signs of precipitation or aggregation are shown.
assay: Nephelometry solubility in HBSS buffer containing 1% DMSO; format: physicochemical; conditions: in triplo
Don't forget the unit after the value.

Prompt: Return reported concentration up to which no signs of precipitation or aggregation are shown; argument: O=S(=O)(NC1CC[C@H]2CO[C@@H]1O2)C1CC1 (some centres unmarked) [Compound 12f]
Response: 320 µM

Prompt: Value lookup for concentration up to which no signs of precipitation or aggregation are shown; key = Cn1ccc(CNC2CC[C@H]3CO[C@@H]2O3)n1.O=C(O)CCC(=O)O (some centres unmarked) [Compound 8f]
Response: 3200 µM

Prompt: Fill blank: measured concentration up to which no signs of precipitation or aggregation are shown of the molecule O=C(Nc1ccc(Cl)cc1)OC1CC[C@H]2CO[C@@H]1O2 (some centres unmarked) [Compound 7c] is ____.
Response: 320 µM

Prompt: Which concentration up to which no signs of precipitation or aggregation are shown is listed for Cc1ccc(COC2CC[C@H]3CO[C@@H]2O3)cc1 (some centres unmarked) [Compound 5c] ?
Response: 1000 µM

Prompt: // concentration up to which no signs of precipitation or aggregation are shown lookup, key: O=C(NC1CC[C@H]2CO[C@@H]1O2)c1cccs1 (some centres unmarked) [Compound 9p]
Response: 1000 µM

// data source = paper PMC9967789
